For each of the binders below, state its Shift %.
Target: T1, human CNTN4 antigen expressed on the cell membrane of 293FT cells (human) (UniProt Q8IWV2)
T1 sequence (looked up): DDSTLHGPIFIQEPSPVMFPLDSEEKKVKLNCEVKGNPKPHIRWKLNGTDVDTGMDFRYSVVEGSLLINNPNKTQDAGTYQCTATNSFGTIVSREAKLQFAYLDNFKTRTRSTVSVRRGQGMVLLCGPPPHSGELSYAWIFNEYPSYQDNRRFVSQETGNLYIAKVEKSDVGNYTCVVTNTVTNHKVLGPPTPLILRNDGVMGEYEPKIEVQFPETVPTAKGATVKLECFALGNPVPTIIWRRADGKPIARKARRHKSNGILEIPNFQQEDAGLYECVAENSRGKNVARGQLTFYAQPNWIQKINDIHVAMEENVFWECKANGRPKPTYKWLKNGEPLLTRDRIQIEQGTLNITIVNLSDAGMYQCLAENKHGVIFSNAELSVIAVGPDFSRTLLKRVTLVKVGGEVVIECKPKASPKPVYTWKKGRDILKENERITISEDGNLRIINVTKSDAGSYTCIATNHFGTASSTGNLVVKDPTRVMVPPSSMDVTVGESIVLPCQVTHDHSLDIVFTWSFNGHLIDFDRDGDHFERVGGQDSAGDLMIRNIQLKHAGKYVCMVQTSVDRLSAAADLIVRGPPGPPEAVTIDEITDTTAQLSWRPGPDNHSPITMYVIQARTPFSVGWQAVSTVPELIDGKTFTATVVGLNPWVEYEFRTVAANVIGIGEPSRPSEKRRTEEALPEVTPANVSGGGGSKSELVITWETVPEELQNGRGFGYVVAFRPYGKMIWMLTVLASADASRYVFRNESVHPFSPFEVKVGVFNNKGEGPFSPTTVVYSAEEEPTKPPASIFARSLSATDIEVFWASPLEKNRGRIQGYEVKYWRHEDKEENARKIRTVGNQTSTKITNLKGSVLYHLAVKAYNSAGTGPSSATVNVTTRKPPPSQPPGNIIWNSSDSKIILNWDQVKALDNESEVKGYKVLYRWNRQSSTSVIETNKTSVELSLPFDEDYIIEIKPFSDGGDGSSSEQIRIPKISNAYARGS
Test: FACS, 293FT cells transfected with human CNTN4, 40 ug/mL, anti-hCk-PE
One number for each entry, in %.

[[record]]
binder = "anti-CNTN4 scFv-hCk S1 (scFv, part only; not given: linker and kappa constant region, not shown: a dimerising Fc or GST) scFv, part: ALTQPSSVSANPGETVKITCSGGSSYGWYQQKSPGSAPVTVIYDNTNRPSNIPSRFSGSKSGSTNTLTITGVRAEDEAVYFCGGYDSSIDAFGAGTTLTVLAVTLDESEGGLQTPGGALSLVCKASGFTFSSFNMFWVRQAPGKGLEYVAEISGGGGSTWYAPAVKGRATISRDNGQSTVRLQLNNLRAEDTGTYYCAKSADTWSYGAATIDAWGHGTEVIVSS"
reading_unit = "%"
readout_value = 13.8


Moving on to another binder below.
Can you share its Shift %? I mean this binder: anti-CNTN4 scFv-hCk S137 (scFv, part only; not given: linker and kappa constant region, not shown: a dimerising Fc or GST) scFv, part: ALTQPSSVSANPGETVKITCSGGSSYGWYQQKSPGSAPVTVIYDNTNRPSNIPSRFSGSKSGSTNTLTITGVQAEDEAVYYCGGYDGSTDAFGAGTTLTVLAVTLDESEGGLQTPGGALSLVCKASGFTFSSFNMFWVRQAPGKGLEYVAEISGGGGSTWYAPAVKGRATISRDNGQSTVRLQLNNLRAEDTGTYYCAKSADTWSYGAATIDAWGHGTEVIVSS
15.3
